Test system: Rattus norvegicus
Assay: Dose required to lower urine osmolality to 300 mOsm/kg in rat.
Format: functional
Numbered stars: 1 amine (or outer) side, 2 acyl side, 3 side chain; on linkers, the order of the positions; unused ones are H or OH. Bridge positions count the residues as written; N and C are the ends. Square brackets hold non-standard residues; d marks the D form. Peptide text beside a SMILES is read from it. * marks the point of attachment. X1 = O=C(CC1(S[*:2])CCCCC1)[*:1]; NH(CH2)5NH2 = NCCCCCN*
quantity: ED300 (mg/kg)

| compound | assay-target | quantity | measurement |
| --- | --- | --- | --- |
| CCOc1ccc(C[C@H]2NC(=O)CC3(CCCCC3)SSC[C@@H](C(=O)N3CCC[C@H]3C(=O)N[C@@H](CCCN=C(N)N)C(=O)NCC(N)=O)NC(=O)[C@H](CC(N)=O)NC(=O)[C@H](C(C)C)NC(=O)[C@H](Cc3ccccc3)NC2=O)cc1 ([dY](Et)FVNCPRG-NH2; linker N-5 via X1) | Rattus norvegicus | ED300 | 0.0112 |
| CCOc1ccc(C[C@H]2NC(=O)CC3(CCCCC3)SSC[C@@H](C(=O)N3CCC[C@H]3C(=O)N[C@@H](CCCNC(=N)N)C(N)=O)NC(=O)[C@H](CC(N)=O)NC(=O)[C@H](C(C)C)NC(=O)[C@H](Cc3ccccc3)NC2=O)cc1 ([dY](Et)FVNCPR-NH2; linker N-5 via X1) | Rattus norvegicus | ED300 | 0.0092 |
| CCOc1ccc(C[C@H]2NC(=O)CC3(CCCCC3)SSC[C@@H](C(=O)N3CCC[C@H]3C(=O)N[C@@H](CCCCN)C(N)=O)NC(=O)[C@H](CC(N)=O)NC(=O)[C@H](C(C)C)NC(=O)[C@H](Cc3ccccc3)NC2=O)cc1 | Rattus norvegicus | ED300 | 0.022 |
| CCOc1ccc(C[C@H]2NC(=O)CC3(CCCCC3)SSC[C@@H](C(=O)NCCCCCN)NC(=O)[C@H](CC(N)=O)NC(=O)[C@H](C(C)C)NC(=O)[C@H](Cc3ccccc3)NC2=O)cc1 | Rattus norvegicus | ED300 | 0.094 |
| CCOc1ccc(C[C@H]2NC(=O)CC3(CCCCC3)SSC[C@@H](C(=O)N3CCC[C@H]3C(=O)NCCCCCN)NC(=O)[C@H](CC(N)=O)NC(=O)[C@H](C(C)C)NC(=O)[C@H](Cc3ccccc3)NC2=O)cc1 ([dY](Et)FVNCP-{NH(CH2)5NH2}; linker N-5 via X1) | Rattus norvegicus | ED300 | 0.027 |
| CCOc1ccc(C[C@H]2NC(=O)CC3(CCCCC3)SSC[C@@H](C(=O)N[C@@H](CCCCN)C(N)=O)NC(=O)[C@H](CC(N)=O)NC(=O)[C@H](C(C)C)NC(=O)[C@H](Cc3ccccc3)NC2=O)cc1 | Rattus norvegicus | ED300 | 0.059 |
